Biological target: human GLP-1R (Homo sapiens, UniProt P43220)
Sequence (P43220 24-463): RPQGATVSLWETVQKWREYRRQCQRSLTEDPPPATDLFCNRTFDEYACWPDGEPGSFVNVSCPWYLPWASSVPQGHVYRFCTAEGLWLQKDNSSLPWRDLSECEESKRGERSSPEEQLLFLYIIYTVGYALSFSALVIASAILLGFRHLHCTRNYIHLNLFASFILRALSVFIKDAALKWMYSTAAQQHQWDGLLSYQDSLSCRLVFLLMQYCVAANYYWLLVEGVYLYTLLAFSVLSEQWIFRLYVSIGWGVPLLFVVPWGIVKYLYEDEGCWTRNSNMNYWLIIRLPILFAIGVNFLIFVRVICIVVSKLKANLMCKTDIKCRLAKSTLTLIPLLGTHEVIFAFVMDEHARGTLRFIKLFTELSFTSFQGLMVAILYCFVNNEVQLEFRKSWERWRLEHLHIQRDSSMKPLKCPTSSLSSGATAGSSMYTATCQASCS
Assay: Human GLP-1 Receptor HEK293 cell cAMP assay, 104 fmol/mg GLP-1R expression density
Format: cell-based
Set-up: expressed in transfected cells; host or cells: HEK293 clonal cell line
Conditions: HEK293 cell line with 104 fmol/mg expression density of GLP-1R; geometric mean; read-out: EC50 nM (SEM, n), intracellular cAMP response, relative EC50
recordedEndpoint: EC50 (nM)
Enter your answer as a number in nM; do not include the unit.

The following compounds have reported results that may help.
What EC50 value was documented for this compound, O=C(O)c1ccc2nc(Cc3ccc4cc3OCCCc3cc(Cl)ccc3COc3cccc-4n3)n(C[C@@H]3CCO3)c2c1 ?
132

What would you report for CNCCOc1cc(C(=O)O)cc2c1nc(Cc1ccc3cc1COCCc1cc(Cl)ccc1COc1cccc-3n1)n2C[C@@H]1CCO1 ?
1030

What would you report for COCCOc1cc(C(=O)O)cc2c1nc(Cc1ccc3cc1COCC(F)(F)c1cc(C#N)ccc1COc1cccc-3n1)n2C[C@@H]1CCO1 ?
128

Next:
What EC50 value was documented for this compound, Cn1ncc(-c2ccc3c(c2)CCCOc2cc(ccc2Cc2nc4ccc(C(=O)O)cc4n2C[C@@H]2CCO2)-c2cccc(n2)OC3)n1 ?
530

Source listed as patent US20240343740A1.
